pIC50: −log10 of the molar value.
The following compounds have recorded pIC50 on UniProtKB P00533.

Consider the reported pIC50 for these compounds:
C(=C\c1cncnc1Nc1ccc2c(cnn2Cc2ccccc2)c1)/c1cn[nH]c1 6.00 to 7.00
C(=C\c1cncnc1Nc1ccc(Oc2ccccc2)cc1)/c1ccccc1 ≥ 5.00

Known value: UniProtKB P00533 pIC50 of the compound N#CCCNCc1cccc(C#Cc2cncnc2Nc2ccc(OCc3cccc(F)c3)c(Cl)c2)n1 equals ≥ 5.00

Let me check: Oc1ccc(C#Cc2cncnc2Nc2ccc(OCc3cccc(F)c3)c(Cl)c2)cc1 , system UniProtKB P00533, measured pIC50 is ≥ 5.00

# N#CCCNCc1ccc(C#Cc2cncnc2Nc2ccc(OCc3cccc(F)c3)c(Cl)c2)o1 with UniProtKB P00533: pIC50 is ≥ 5.00

----------
# assayTarget: EGFR (UniProt P00533)
# Sequence (P00533 whole entry, looked up): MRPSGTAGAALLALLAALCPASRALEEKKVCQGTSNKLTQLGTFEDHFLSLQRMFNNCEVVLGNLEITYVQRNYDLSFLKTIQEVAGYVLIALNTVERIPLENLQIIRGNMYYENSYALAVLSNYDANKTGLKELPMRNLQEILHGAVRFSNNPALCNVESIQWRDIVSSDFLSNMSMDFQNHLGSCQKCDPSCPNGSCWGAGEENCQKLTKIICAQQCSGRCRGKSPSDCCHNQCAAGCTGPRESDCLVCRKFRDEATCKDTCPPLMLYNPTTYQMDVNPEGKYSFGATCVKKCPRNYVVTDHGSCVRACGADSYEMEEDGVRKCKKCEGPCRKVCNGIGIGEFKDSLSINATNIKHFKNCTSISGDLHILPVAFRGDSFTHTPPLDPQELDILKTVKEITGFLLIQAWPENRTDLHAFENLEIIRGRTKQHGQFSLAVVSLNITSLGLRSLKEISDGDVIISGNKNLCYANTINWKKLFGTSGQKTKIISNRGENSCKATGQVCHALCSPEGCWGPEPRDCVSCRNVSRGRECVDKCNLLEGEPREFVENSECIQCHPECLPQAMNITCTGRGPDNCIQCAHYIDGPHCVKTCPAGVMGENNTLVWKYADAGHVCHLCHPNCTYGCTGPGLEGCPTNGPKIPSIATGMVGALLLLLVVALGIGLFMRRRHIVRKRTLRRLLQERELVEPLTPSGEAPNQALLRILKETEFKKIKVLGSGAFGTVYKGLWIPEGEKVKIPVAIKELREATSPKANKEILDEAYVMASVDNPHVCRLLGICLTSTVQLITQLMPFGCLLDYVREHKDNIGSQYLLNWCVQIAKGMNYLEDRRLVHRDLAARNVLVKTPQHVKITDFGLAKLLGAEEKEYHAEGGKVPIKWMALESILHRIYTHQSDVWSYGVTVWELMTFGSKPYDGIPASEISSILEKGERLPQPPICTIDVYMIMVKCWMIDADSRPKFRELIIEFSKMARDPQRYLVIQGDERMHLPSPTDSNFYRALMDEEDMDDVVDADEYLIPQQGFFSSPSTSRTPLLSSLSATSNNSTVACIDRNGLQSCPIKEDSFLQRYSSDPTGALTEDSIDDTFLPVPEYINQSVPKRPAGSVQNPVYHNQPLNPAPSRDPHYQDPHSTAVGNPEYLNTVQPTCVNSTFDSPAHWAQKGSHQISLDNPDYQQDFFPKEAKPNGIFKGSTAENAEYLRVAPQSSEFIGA
pIC50: −log10 of the molar value.
quantityName: pIC50

Please review the following examples before continuing.
CC(=O)Nc1ccc(/C=C/c2cncnc2Nc2ccc(OCc3cccc(F)c3)c(Cl)c2)cn1 ≥ 5.00
Fc1cccc(COc2ccc(Nc3ncncc3/C=C/c3ccsc3)cc2Cl)c1 > 7.00
Fc1cccc(COc2ccc(Nc3ncncc3C#Cc3cccs3)cc2Cl)c1 ≥ 5.00
COCCOCC(=O)Nc1cccc(C#Cc2cncnc2Nc2ccc(OCc3cccc(F)c3)c(Cl)c2)c1 ≥ 5.00
N=C(N)Nc1cccc(C#Cc2cncnc2Nc2ccc(OCc3cccc(F)c3)c(Cl)c2)c1 6.00 to 7.00
Oc1cccnc1/C=C/c1cncnc1Nc1ccc2c(cnn2Cc2ccccc2)c1 ≥ 5.00
CN(C)Cc1cccc(C#Cc2cncnc2Nc2ccc(OCc3cccc(F)c3)c(Cl)c2)n1 ≥ 5.00
O=C(NCCN1CCOCC1)NCc1cccc(C#Cc2cncnc2Nc2ccc(OCc3cccc(F)c3)c(Cl)c2)n1 > 7.00

Now for another entry.
Item O=C(Nc1cccc(C#Cc2cncnc2Nc2ccc(OCc3cccc(F)c3)c(Cl)c2)n1)C(F)(F)F ; assay system EGFR (UniProt P00533); pIC50 reported as > 7.00

----------
# assayTarget: UniProtKB P00533
quantityName: IC50

Here is how some molecules turned out for IC50.
Fc1cccc(COc2ccc(Nc3ncncc3C#Cc3cccc(CNCCCn4ccnc4)n3)cc2Cl)c1 < 0.1 µM
Cn1cncc1C#Cc1cncnc1Nc1ccc(OCc2cccc(F)c2)c(Cl)c1 ≤ 10 µM
Fc1cccc(COc2ccc(Nc3ncncc3C#Cc3ncccn3)cc2Cl)c1 ≤ 10 µM
COCc1cccc(C#Cc2cncnc2Nc2ccc(OCc3cccc(F)c3)c(Cl)c2)n1 > 1 µM
Nc1ncc(/C=C/c2cncnc2Nc2ccc(OCc3cccc(F)c3)c(Cl)c2)cn1 ≤ 10 µM

The reported IC50 of the molecule C(=C\c1cncnc1Nc1ccc2[nH]c(Cc3ccccc3)nc2c1)/c1ccccc1 was ≤ 10 µM

Just so you know, measured IC50 for Fc1cccc(COc2ccc(Nc3ncncc3C#Cc3cccc(CN4CCOCC4)n3)cc2Cl)c1 came out at ≤ 10 µM

For this molecule ( COCCNCc1cccc(C#Cc2cncnc2Nc2ccc(OCc3cccc(F)c3)c(Cl)c2)n1 ), measured IC50 is ≤ 10 µM

For Fc1cccc(COc2ccc(Nc3ncncc3C#Cc3nccs3)cc2Cl)c1 the molecule record lists IC50 as ≤ 10 µM

// CN(CCO)C(=O)NCc1cccc(C#Cc2cncnc2Nc2ccc(OCc3cccc(F)c3)c(Cl)c2)n1 : IC50 value = ≤ 10 µM

Where do these numbers come from? They come from the Kinase Knowledgebase extract (Sharma et al. 2016).
